# target-entity: Nuclear receptor subfamily 0 group B member 1 (Homo sapiens) (UniProt P51843)
# Sequence (P51843 207-470 limits assumed): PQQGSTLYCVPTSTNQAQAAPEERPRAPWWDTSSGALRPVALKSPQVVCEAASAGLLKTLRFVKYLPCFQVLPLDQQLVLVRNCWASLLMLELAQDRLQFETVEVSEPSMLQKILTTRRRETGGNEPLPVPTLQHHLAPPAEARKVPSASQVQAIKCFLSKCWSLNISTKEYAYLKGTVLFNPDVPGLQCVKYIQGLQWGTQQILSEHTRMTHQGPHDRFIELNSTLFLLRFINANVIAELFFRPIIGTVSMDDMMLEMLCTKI
# experiment-notes: DAX1 (NR0B1) inhibitors, primary screen, cell-based, HEK293, Gal4-DAX1, luciferase luminescence (AID 504766);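 further: 0% = DAX1-transfected cells with DMSO and 100% = empty-vector control cells with DMSO; inhibition shows as a rise in luminescence from relieved DAX1 repression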
# recorded-conditions: HEK293 Gal4-DAX1 luciferase reporter, at 6.75 µM, stronger effect = higher value
The whole screen tested about 340,000 compounds, of which about 3,400 (1%) were called active. The sample holds actives, similar compounds and a random draw of the others, so the mix is not that of the screen.

compound	inhibition [%]
O=C(NCCc1ccco1)c1ccc(OCc2cn3ccccc3n2)cc1	0.65
C[C@H]1CN([C@@H](C)CO)C(=O)c2cc(Br)cnc2O[C@H]1CN(C)S(=O)(=O)c1cccs1	0.93
CCc1ccc(C(=O)NN=C2CCCCCC2)s1	1.24
CC(C)(C)NC(=O)C(=O)NN=C1CCCCCCC1	6.84
CC(NC(=O)C1CCC(CNc2c(N3CCOCC3)c(=O)c2=O)CC1)c1ccccc1 (stereo unspecified)	0.2
CC(C)NC(=S)NN=C1CCCCCCCCCCC1	-0.27

Where do these numbers come from? They come from PubChem BioAssay AID504766.
